assay: Apparent oral clearance in F344/N JcL-rnu athymic rat at 5 mg/kg, po measured upto 72 hrs by HPLC-MS/MS analysis; format: ADME, organism-based; conditions: in vivo
assay readout: CL/F (mL/min/kg)
Only the number, expressed in mL/min/kg, is required.

Qu. What CL/F value was documented for this compound, COc1cc2nccc(Oc3ccc(NC(=O)Nc4cc(C)on4)c(Cl)c3)c2cc1OC ?
Ans. 1.88

====

assay: Apparent oral clearance in F344/N JcL-rnu athymic rat at 0.04 mg/kg, po measured upto 72 hrs by HPLC-MS/MS analysis; assay type: ADME, organism-based; details: in vivo
assay readout: CL/F
Write the quantity with the unit trailing the number.

Qu. What CL/F value was documented for this compound, COc1cc2nccc(Oc3ccc(NC(=O)Nc4cc(C)on4)c(Cl)c3)c2cc1OC ?
Ans. 2.03 mL/min/kg
